Form field: inhibition (one value per entry).
target: Protein deacetylase HDAC6 (Homo sapiens) (UniProt Q9UBN7); conditions: at 10 µM
Sequence (Q9UBN7 whole entry): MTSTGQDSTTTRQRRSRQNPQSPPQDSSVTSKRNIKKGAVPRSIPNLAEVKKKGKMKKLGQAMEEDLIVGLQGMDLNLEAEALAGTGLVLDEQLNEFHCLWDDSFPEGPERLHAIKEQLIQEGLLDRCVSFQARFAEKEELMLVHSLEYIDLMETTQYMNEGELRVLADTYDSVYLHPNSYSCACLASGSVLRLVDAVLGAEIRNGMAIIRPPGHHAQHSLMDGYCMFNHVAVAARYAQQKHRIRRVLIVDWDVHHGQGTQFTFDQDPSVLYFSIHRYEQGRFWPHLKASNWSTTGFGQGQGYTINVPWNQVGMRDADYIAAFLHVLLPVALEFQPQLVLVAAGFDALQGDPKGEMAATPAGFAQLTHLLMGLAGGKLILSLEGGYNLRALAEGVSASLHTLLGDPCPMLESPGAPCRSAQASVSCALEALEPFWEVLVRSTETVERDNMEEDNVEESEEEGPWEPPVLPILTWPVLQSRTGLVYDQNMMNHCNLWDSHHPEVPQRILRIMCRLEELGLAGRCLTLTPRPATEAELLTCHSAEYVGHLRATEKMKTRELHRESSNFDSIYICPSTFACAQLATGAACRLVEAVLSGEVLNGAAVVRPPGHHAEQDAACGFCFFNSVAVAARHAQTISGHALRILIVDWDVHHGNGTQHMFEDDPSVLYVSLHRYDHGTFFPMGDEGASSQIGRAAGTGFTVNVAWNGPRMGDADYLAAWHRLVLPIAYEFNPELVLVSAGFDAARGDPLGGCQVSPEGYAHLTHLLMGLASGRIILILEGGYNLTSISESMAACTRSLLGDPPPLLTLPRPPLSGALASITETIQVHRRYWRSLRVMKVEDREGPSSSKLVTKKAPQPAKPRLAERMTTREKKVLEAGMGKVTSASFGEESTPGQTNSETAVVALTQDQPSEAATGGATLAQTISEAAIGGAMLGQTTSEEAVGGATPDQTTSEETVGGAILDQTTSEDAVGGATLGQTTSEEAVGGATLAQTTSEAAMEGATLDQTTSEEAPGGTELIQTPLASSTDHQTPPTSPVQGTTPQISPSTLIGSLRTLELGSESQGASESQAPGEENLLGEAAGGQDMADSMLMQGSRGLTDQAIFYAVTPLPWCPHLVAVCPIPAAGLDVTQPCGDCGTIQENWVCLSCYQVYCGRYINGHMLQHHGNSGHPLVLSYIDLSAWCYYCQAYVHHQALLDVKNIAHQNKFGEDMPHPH
Out of some 5,600 compounds screened, about 150 (2.7%) showed an effect of 50% or more. What follows is part of a selection rich in strong results, with near analogues and random picks from the rest.
All answers are understood in %, so give the number only.

Known results for molecules:
{"columns": ["Molecule", "Units Text", "inhibition"],
 "data": [
  ["Fc1ccc(-c2cncc(CN3CCN(c4cccc5c4OCCO5)CC3)c2)cc1", "%", 2],
  ["CCC(CC)Nc1nc(C)c(-c2ccc(OC(F)(F)F)cc2OC)nc1OC", "%", -3.03],
  ["Oc1cc(O)cc(O)c1", "%", 2.03],
  ["O=S(=O)(O)CC(S)CS (stereo not drawn)", "%", 2.52],
  ["COc1cccc(NC(=O)/C=C/c2ccc(Cl)cc2)c1", "%", 91.8],
  ["COc1cc(/C=C/c2ccc(O)cc2)cc(OC)c1", "%", -1.8]
]}

inhibition for Nc1n[nH]c2nnc(-c3c(-c4ccccc4)nn4ccccc34)cc12 is 1.45

inhibition for COc1ccc(/C=C\c2cc(OC)c(OC)c(OC)c2)cc1O is -2.33

inhibition for CCOC(=O)c1ccc(O)cc1 is -0.21

inhibition for CCN(c1ccccc1)c1cc(NC)[n+](C)c(C)n1 is -1.77

inhibition for N=C(N)Nc1ccc(Cl)cc1 is 0.23

inhibition for CN(C)Cc1ccc(S(=O)(=O)n2ccc(/C=C/C(=O)NO)c2)cc1 is 97.8

inhibition for COc1ccc(/C=C/C(=O)O)cc1 is -6.98
